- test.target: GPCR GPR40 (Rattus norvegicus)
- Construct: expressed in transfected cells; host or cells: HEK293
- Sequence (Q8K3T4 whole entry): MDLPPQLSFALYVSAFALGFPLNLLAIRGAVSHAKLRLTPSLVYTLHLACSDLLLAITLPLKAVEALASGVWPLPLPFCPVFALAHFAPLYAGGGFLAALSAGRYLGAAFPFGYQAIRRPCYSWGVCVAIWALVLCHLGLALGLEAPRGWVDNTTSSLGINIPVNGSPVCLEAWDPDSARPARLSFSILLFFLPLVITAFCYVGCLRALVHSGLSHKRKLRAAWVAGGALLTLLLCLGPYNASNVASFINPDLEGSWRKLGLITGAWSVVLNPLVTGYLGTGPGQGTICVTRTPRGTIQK
- test.protocol: In vitro FLIPR assay with recombinant cells which express the GPCR GPR40 (intracellular Ca2+)
- Format: cell-based
- experimental.parameters: recombinant HEK293 cells expressing GPR40; Fluo-4 Ca2+ change; 100% = 10 μM linoleic acid
// reported EC50 per item
quantity: EC50

compound="CC#CC(CC(=O)O)c1ccc(OCn2c(=O)sc3ccccc32)cc1 (stereo not drawn)" quantity=EC50 recorded_value="50 nM"
compound="CC#CC(CC(=O)O)c1ccc(OCN2C(=O)C(C)(C)Oc3cccnc32)cc1 (stereo not drawn)" quantity=EC50 recorded_value="350 nM"
compound="CC#CC(CC(=O)O)c1ccc(OCN2C(=O)C(C)(C)c3cc(C(F)(F)F)ccc32)cc1 (stereo not drawn)" quantity=EC50 recorded_value="130 nM"
compound="CC#CC(CC(=O)O)c1ccc(OCN2C(=O)C(C)(C)c3ccc(Br)cc32)cc1 (stereo not drawn)" quantity=EC50 recorded_value="4610 nM"
compound="CC#CC(CC(=O)O)c1ccc(OCN2C(=O)C(CC)(CC)c3cc(Br)ccc32)cc1 (stereo not drawn)" quantity=EC50 recorded_value="180 nM"
compound="CC#CC(CC(=O)O)c1ccc(OCN2C(=O)CC(C)(C)c3cc(Br)ccc32)cc1 (stereo not drawn)" quantity=EC50 recorded_value="440 nM"
compound="CC#CC(CC(=O)O)c1ccc(OCN2C(=O)C(C)(C)Oc3ccccc32)cc1 (stereo not drawn)" quantity=EC50 recorded_value="60 nM"
compound="CC#CC(CC(=O)O)c1ccc(OCN2C(=O)C(C)(C)Oc3cc(Br)ccc32)cc1 (stereo not drawn)" quantity=EC50 recorded_value="280 nM"
compound="CC#CC(CC(=O)O)c1ccc(OCN2C(=O)C(C)(C)c3cc(Br)ccc32)cc1 (stereo not drawn)" quantity=EC50 recorded_value="110 nM"
